# assayed_target: Type I 5α-Reductase from Human Scalp (Homo sapiens)
# Construct: Scalp punch biopsies from graft recipient sites were obtained from human hair transplant procedures; from tissue; host or cells: human scalp punch biopsies (hair transplant graft recipient sites), homogenate, 100,000×g pellet
# Sequence (P18405 1-259): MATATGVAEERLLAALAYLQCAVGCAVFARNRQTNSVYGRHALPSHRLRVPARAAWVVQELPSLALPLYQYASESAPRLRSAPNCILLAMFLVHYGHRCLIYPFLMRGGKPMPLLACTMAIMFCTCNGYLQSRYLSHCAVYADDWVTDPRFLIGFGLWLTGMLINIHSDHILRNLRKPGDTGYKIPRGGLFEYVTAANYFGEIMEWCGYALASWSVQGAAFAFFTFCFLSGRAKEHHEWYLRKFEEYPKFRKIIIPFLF
# procedure_summary: Human Type I 5α-reductase assay (conversion of [3H]-testosterone to 5α-reduced metabolites)
# Type: biochemical
# recorded_conditions: pH 7.5, 0.3 μM; 50 nM [3H]-testosterone, pH 7.5, 25°, 180 min; compared to control reaction mixtures; read-out: percent inhibition of Type I AR
measure_name: inhibition at 0.3 µM (%)
One number for each entry, in %.

The cases that follow already have their inhibition at 0.3 µM on record.
[[record]]
cpd_smiles = "Cc1cccc(-c2ccc3c(c2)CC[C@H]2N(C)C(=O)CC[C@]32C)c1C"
observed_measurement = 84

[[record]]
cpd_smiles = "CN1C(=O)CC[C@]2(C)c3ccc(Sc4nc5c(C(C)(C)C)ccc(C(C)(C)C)c5s4)cc3CC[C@@H]12"
observed_measurement = 84


Attention now shifts to the item below.
Enquiry: Determine its reported inhibition at 0.3 µM: `CN1C(=O)CC[C@]2(C)c3ccc(-c4ccc5c(ccn5C(=O)OC(C)(C)C)c4)cc3CC[C@@H]12`
Return: 83

----------
What inhibition at 0.3 µM was measured for each of the following?
# assayed_target: Type I 5α-Reductase from Human Scalp (Homo sapiens, UniProt P18405)
# Construct: Scalp punch biopsies from graft recipient sites were obtained from human hair transplant procedures; from tissue; host or cells: human scalp punch biopsies (hair transplant graft recipient sites), homogenate, 100,000×g pellet
# procedure_summary: Human Type I 5α-reductase assay (conversion of [3H]-testosterone to 5α-reduced metabolites)
# Format: biochemical
# recorded_conditions: pH 7.5, 0.3 μM; 50 nM [3H]-testosterone, pH 7.5, 25°, 180 min; compared to control reaction mixtures; read-out: percent inhibition of Type I AR
Give bare numbers, in %.

[[record]]
cpd_smiles = "Cc1ccccc1-c1ccc2c(c1)CC[C@H]1N(C)C(=O)CC[C@]21C"
assayed_target = "Type I 5α-Reductase from Human Scalp (Homo sapiens, UniProt P18405)"
observed_measurement = 90

[[record]]
cpd_smiles = "CN1C(=O)CC[C@]2(C)c3ccc(-c4ccc(Cl)c(Cl)c4)cc3CC[C@@H]12"
assayed_target = "Type I 5α-Reductase from Human Scalp (Homo sapiens, UniProt P18405)"
observed_measurement = 88


Enquiry: Determine its reported inhibition at 0.3 µM: `CN1C(=O)CC[C@]2(C)c3ccc(Sc4cccc(Cl)c4)cc3CC[C@@H]12`
Return: 96

----------
# assayed_target: Type I 5α-Reductase from Human Scalp (Homo sapiens, UniProt P18405)
# Construct: Scalp punch biopsies from graft recipient sites were obtained from human hair transplant procedures; from tissue; host or cells: human scalp punch biopsies (hair transplant graft recipient sites), homogenate, 100,000×g pellet
# procedure_summary: Human Type I 5α-reductase assay (conversion of [3H]-testosterone to 5α-reduced metabolites)
# Assay type: biochemical
# recorded_conditions: pH 7.5, 0.3 μM; 50 nM [3H]-testosterone, pH 7.5, 25°, 180 min; compared to control reaction mixtures; read-out: percent inhibition of Type I AR
What inhibition at 0.3 µM was measured for each of the following?
Answers are plain numbers, in %.

The cases that follow already have their inhibition at 0.3 µM on record.
[[record]]
cpd_smiles = "CN1C(=O)CC[C@]2(C)c3ccc(-c4ccc5ncsc5c4)cc3CC[C@@H]12"
observed_measurement = 69

[[record]]
cpd_smiles = "CN1C(=O)CC[C@]2(C)c3ccc(Sc4ccc5nc6ccccc6c(=O)n5n4)cc3CC[C@@H]12"
observed_measurement = 25

[[record]]
cpd_smiles = "CCCN(CCC)[C@@H]1Cc2cc(-c3ccc4c(c3)CC[C@H]3N(C)C(=O)CC[C@]43C)cc3c2[C@@H](C1)CN3C(=O)c1ccccc1"
observed_measurement = 47


Attention now shifts to the item below.
Enquiry: Please look at `CN1C(=O)CC[C@]2(C)c3ccc(Sc4nccc5ccccc45)cc3CC[C@@H]12` and tell me its recorded inhibition at 0.3 µM on Type I 5α-Reductase from Human Scalp (Homo sapiens, UniProt P18405).
Return: 70

----------
# assayed_target: Type II 5α-Reductase from Human Prostate (Homo sapiens)
# Construct: The same procedure as above was used for preparations using tissue from prostate surgery; from tissue; host or cells: human prostate tissue from surgery, homogenate, 100,000×g pellet
# procedure_summary: Human Type II 5α-reductase assay (conversion of [3H]-testosterone to 5α-reduced metabolites)
# Type: biochemical
# recorded_conditions: pH 5.5, 0.3 μM; sodium acetate pH 5.5, 25°, 30 min; compared to control reaction mixtures; read-out: percent inhibition of Type II AR
measure_name: inhibition at 0.3 µM (%)
Give bare numbers, in %.

[[record]]
molecule = "CN1C(=O)CC[C@]2(C)c3ccc(-c4ccc(SCc5ccc([N+](=O)[O-])cc5)cc4)cc3CC[C@@H]12 [Example 233]"
assayed_target = "Type II 5α-Reductase from Human Prostate (Homo sapiens)"
unit = "%"
observed_measurement = 38

[[record]]
molecule = "COc1cc(-c2ccc3c(c2)CC[C@H]2N(C)C(=O)CC[C@]32C)ccc1O [Example 36]"
assayed_target = "Type II 5α-Reductase from Human Prostate (Homo sapiens)"
unit = "%"
observed_measurement = 52


Attention now shifts to the item below.
Enquiry: Please look at CN1C(=O)CC[C@]2(C)c3ccc(-c4nnnn4-c4ccccc4)cc3CC[C@@H]12 [Example 258] and tell me its recorded inhibition at 0.3 µM on Type II 5α-Reductase from Human Prostate (Homo sapiens).
Return: 16

----------
# assayed_target: Type II 5α-Reductase from Human Prostate (Homo sapiens)
# Construct: The same procedure as above was used for preparations using tissue from prostate surgery; from tissue; host or cells: human prostate tissue from surgery, homogenate, 100,000×g pellet
# Sequence (P31213 1-254): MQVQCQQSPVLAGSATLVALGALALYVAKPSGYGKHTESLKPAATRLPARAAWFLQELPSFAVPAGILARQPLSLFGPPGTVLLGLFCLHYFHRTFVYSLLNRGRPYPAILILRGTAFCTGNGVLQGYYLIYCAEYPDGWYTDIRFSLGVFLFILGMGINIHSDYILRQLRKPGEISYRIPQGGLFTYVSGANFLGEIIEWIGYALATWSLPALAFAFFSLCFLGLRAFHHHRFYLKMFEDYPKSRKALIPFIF
# procedure_summary: Human Type II 5α-reductase assay (conversion of [3H]-testosterone to 5α-reduced metabolites)
# Type: biochemical
# recorded_conditions: pH 5.5, 0.3 μM; sodium acetate pH 5.5, 25°, 30 min; compared to control reaction mixtures; read-out: percent inhibition of Type II AR
measure_name: inhibition at 0.3 µM (%)
Give bare numbers, in %.

The cases that follow already have their inhibition at 0.3 µM on record.
[[record]]
compound = "Cc1ccc2ccccc2c1-c1ccc2c(c1)CC[C@H]1N(C)C(=O)CC[C@]21C [Example 72]"
assayed_target = "Type II 5α-Reductase from Human Prostate (Homo sapiens)"
measure_name = "inhibition at 0.3 µM"
unit = "%"
observed_measurement = 26

[[record]]
compound = "C[C@]12CCC(=O)N[C@@H]1CCc1cc(-c3nccs3)ccc12 [Example 198]"
assayed_target = "Type II 5α-Reductase from Human Prostate (Homo sapiens)"
measure_name = "inhibition at 0.3 µM"
unit = "%"
observed_measurement = 7


Attention now shifts to the item below.
Enquiry: Please look at CN1C(=O)CC[C@]2(C)c3ccc(Sc4ccc(C(F)(F)F)cn4)cc3CC[C@@H]12 [Example 155] and tell me its recorded inhibition at 0.3 µM on Type II 5α-Reductase from Human Prostate (Homo sapiens).
Return: 60

----------
# assayed_target: Type I 5α-Reductase from Human Scalp (Homo sapiens, UniProt P18405)
# Construct: Scalp punch biopsies from graft recipient sites were obtained from human hair transplant procedures; from tissue; host or cells: human scalp punch biopsies (hair transplant graft recipient sites), homogenate, 100,000×g pellet
# Sequence (P18405 1-259): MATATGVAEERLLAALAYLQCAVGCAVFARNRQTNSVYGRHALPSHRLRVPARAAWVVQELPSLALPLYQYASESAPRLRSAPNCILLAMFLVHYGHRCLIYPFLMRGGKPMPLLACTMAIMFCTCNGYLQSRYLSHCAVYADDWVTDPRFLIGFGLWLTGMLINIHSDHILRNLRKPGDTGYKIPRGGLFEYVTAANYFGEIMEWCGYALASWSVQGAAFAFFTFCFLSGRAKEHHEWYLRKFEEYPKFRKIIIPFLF
# procedure_summary: Human Type I 5α-reductase assay (conversion of [3H]-testosterone to 5α-reduced metabolites)
# Format: biochemical
# recorded_conditions: pH 7.5, 0.3 μM; 50 nM [3H]-testosterone, pH 7.5, 25°, 180 min; compared to control reaction mixtures; read-out: percent inhibition of Type I AR
What inhibition at 0.3 µM was measured for each of the following?

The cases that follow already have their inhibition at 0.3 µM on record.
[[record]]
cpd_smiles = "CN1C(=O)CC[C@]2(C)c3ccc(Sc4cnc5ccccc5c4)cc3CC[C@@H]12"
measure_name = "inhibition at 0.3 µM"
observed_measurement = "73%"

[[record]]
cpd_smiles = "CN1C(=O)CC[C@]2(C)c3ccc(-c4cc(C(F)(F)F)nc5c(C(F)(F)F)cccc45)cc3CC[C@@H]12"
measure_name = "inhibition at 0.3 µM"
observed_measurement = "8%"

[[record]]
cpd_smiles = "CN1C(=O)CC[C@]2(C)c3ccc(-c4ccc(SCc5ccc([N+](=O)[O-])cc5)cc4)cc3CC[C@@H]12"
measure_name = "inhibition at 0.3 µM"
observed_measurement = "95%"

[[record]]
cpd_smiles = "CN1C(=O)CC[C@]2(C)c3ccc(Sc4nccs4)cc3CC[C@@H]12"
measure_name = "inhibition at 0.3 µM"
observed_measurement = "58%"


Hey, can you go through the list below and give me inhibition at 0.3 µM for every item?
1. CN1C(=O)CC[C@]2(C)c3ccc(-c4cc(F)cc(F)c4)cc3CC[C@@H]12
2. CN1C(=O)CC[C@]2(C)c3ccc(C(c4ccccc4)c4ccccc4)cc3CC[C@@H]12
3. CN1C(=O)CC[C@]2(C)c3ccc(-c4ccc5c(c4)OCCO5)cc3CC[C@@H]12
4. COc1ccc(Sc2ccc3c(c2)CC[C@H]2NC(=O)CC[C@]32C)cc1
5. CN1C(=O)CC[C@]2(C)c3ccc(Sc4ccc(C(F)(F)F)cn4)cc3CC[C@@H]12
6. CN1C(=O)CC[C@]2(C)c3ccc(-c4ccc(F)c(Cl)c4)cc3CC[C@@H]12

Return:
["97%", "30%", "78%", "11%", "58%", "96%"]

Hey, can you go through the list below and give me inhibition at 0.3 µM for every item?
1. CN1C(=O)CC[C@]2(C)c3ccc(-c4nc5c(ccc6ccccc65)s4)cc3CC[C@@H]12
2. CN1C(=O)CC[C@]2(C)c3ccc(-c4ccccc4C#N)cc3CC[C@@H]12
3. CN1C(=O)CC[C@]2(C)c3ccc(-c4cc(F)c([N+](=O)[O-])cc4F)cc3CC[C@@H]12
4. CN1C(=O)CC[C@]2(C)c3ccc(Sc4nc5cc(Cl)c(Cl)cc5s4)cc3CC[C@@H]12
5. C[C@]12CCC(=O)N[C@@H]1CCc1cc(Sc3cnc4ccccc4c3)ccc12
6. CN1C(=O)CC[C@]2(C)c3ccc(Sc4cnc5ccccc5n4)cc3CC[C@@H]12

Return:
1: 84%; 2: 64%; 3: 88%; 4: 61%; 5: 7%; 6: 49%

Hey, can you go through the list below and give me inhibition at 0.3 µM for every item?
1. CN1C(=O)CC[C@]2(C)c3ccc(C(=O)NC(c4ccccc4)c4ccccc4)cc3CC[C@@H]12
2. CN1C(=O)CC[C@]2(C)c3ccc(-c4ccccc4Cl)cc3CC[C@@H]12
3. CN1C(=O)CC[C@]2(C)c3ccc(-c4cc5c6c(c4)N(C(=O)c4ccccc4)C[C@@H]6C[C@H](N)C5)cc3CC[C@@H]12
4. CN1C(=O)CC[C@]2(C)c3ccc(-c4ccc5ccccc5n4)cc3CC[C@@H]12

Return:
1: 2%; 2: 88%; 3: 16%; 4: 60%

Hey, can you go through the list below and give me inhibition at 0.3 µM for every item?
1. CN1C(=O)CC[C@]2(C)c3ccc(Sc4nc5ccc(Cl)cc5s4)cc3CC[C@@H]12
2. CCc1cccc2sc(Sc3ccc4c(c3)CC[C@H]3N(C)C(=O)CC[C@]43C)nc12

Return:
78%
93%

Hey, can you go through the list below and give me inhibition at 0.3 µM for every item?
1. COc1ccc2cc(-c3ccc4c(c3)CC[C@H]3N(C)C(=O)CC[C@]43C)ccc2c1
2. CN1C(=O)CC[C@]2(C)c3ccc(Sc4nc5ccccc5s4)cc3CC[C@@H]12

Return:
92%
64%
